readout.name: pIC50
# pIC50: negative log10 of molar concentration; output just the value

Hey, CDK6 (Homo sapiens, UniProt Q00534) data for CN(C)C(=O)c1cc2cnc(Nc3ccc(CS(=O)(=O)CCCCCCN=C=S)cc3)nc2n1C1CCCC1 : pIC50 came out at 6.90

---

readout.name: IC50 (nM)
// return numeric value only (unit: nM, not printed)

Test item CN(C)C(=O)c1cc2cnc(Nc3ccc(CS(=O)(=O)CCCCCN=C=S)cc3)nc2n1C1CCCC1 ; CDK4 (Homo sapiens, UniProt P11802); reported IC50 was 24

Observed IC50, CDK4 (Homo sapiens, UniProt P11802), CN(C)C(=O)c1cc2cnc(Nc3ccc(CS(=O)(=O)CCCCN=C=S)cc3)nc2n1C1CCCC1 : 21

Item CN(C)C(=O)c1cc2cnc(Nc3ccc(S(=O)(=O)CCCN=C=S)cc3)nc2n1C1CCCC1 ; assay system CDK4 (Homo sapiens, UniProt P11802); IC50 reported as 43

Short answer on CDK4 (Homo sapiens, UniProt P11802) for CN(C)C(=O)c1cc2cnc(Nc3ccc([S+]([O-])CCCCCN=C=S)cc3C(F)(F)F)nc2n1C1CCCC1 (centres unmarked) , IC50: 331

Measured IC50 for this entry CN(C)C(=O)c1cc2cnc(Nc3ccc(CS(=O)(=O)CCCCCCN=C=S)cc3)nc2n1C1CCCC1 on CDK4 (Homo sapiens, UniProt P11802): 30
